- System: NCI-H1048 cells
- protocol description: MTT proliferation assay, NCI-H1048;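 also: Dose-response in 96-well plates over 8 or 10 concentration points, with exposure spanning 3-4 cell doublings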
- Format: cell-based
- measurement parameters: 5 days compound exposure, 1:3 serial dilution starting at 10 μM
*1 amine or outer side, *2 acyl side, *3 side chain or, on linkers, in order; H or OH if unused. Where a SMILES comes first, the peptide text is derived from it. Bridges are numbered along the chain shown (N, C = ends). [ ]: non-standard residue; d: D form. The star is where a group is joined. NMe3Pal(2-OcPr,5-F) = CN[C@@H](Cc1cc(F)cnc1OC1CC1)C(=O)O; NMe(hhhLys) = CN([C@@H](CCCCCCCN[*:3])C(=O)[*:2])[*:1]; cBuCO(3,3-F2-1-CF3) = O=C(C1(C(F)(F)F)CC(F)(F)C1)*; Pro(trans-4-F) = O=C(O)[C@@H]1C[C@@H](F)CN1; Gly(cPr) = N[C@H](C(=O)O)C1CC1
experimental readout: GI50 (nM)
One number for each entry, in nM.

Use these answered entries as a reference point.
[
  {
    "compound": "CC(C)C[C@H]1NC(=O)[C@H](N(C)C(=O)[C@H](NC(=O)[C@H]2C[C@H](F)CN2C(=O)C2(C#N)CCC2)C2CC2)CCCCCCCN(C)C(=O)[C@@H](Cc2cc(Cl)ccc2-c2cnn(C)c2)N(C)C1=O [Example 82]",
    "units text": "nM",
    "GI50": 30
  },
  {
    "compound": "CC(=O)N1[C@H]2CC[C@@H]1C=C(c1ccc(Cl)cc1C[C@H]1C(=O)N(C)CCCCCCC[C@H](N(C)C(=O)[C@@H](NC(=O)[C@@H]3C[C@@H](F)CN3C(=O)C3(C(F)(F)F)CC(F)(F)C3)C3CC3)C(=O)N[C@@H](CC(C)C)C(=O)N1C)C2 (single isomer, unassigned) [Example 57-P1]",
    "units text": "nM",
    "GI50": 10
  }
]

Next up:
Qu. If you can, please state the reported GI50 value of CC(C)C[C@@H]1NC(=O)[C@@H](N(C)C(=O)[C@@H](NC(=O)[C@@H]2C[C@@H](F)CN2C(=O)C2(C(F)(F)F)CC(F)(F)C2)C2CC2)CCCCCCCNC(=O)[C@H](Cc2cc(F)cnc2OC2CC2)N(C)C1=O [Example 127] ({cBuCO(3,3-F2-1-CF3)}-[Pro(trans-4-F)][Gly(cPr)][NMe(hhhLys)]L[NMe3Pal(2-OcPr,5-F)]; lactam 3-C) .
Ans. 30
